# METHOD_NOTES: compounds altering Cy5-DNA-NS3h complex signal – biochemical, LOPAC1280, artefact control for HCV NS3 helicase inhibitor project (AID 687037)
# ASSAY_CONTEXT: Cy5-DNA-NS3h complex fluorescence interference counterscreen
READOUT: fluorescence ratio (interference)
Could you keep your reply to the number by itself?

Exercise: Report fluorescence ratio (interference) for CCOC(=O)C1=C[C@]2(CC)CCCN3CCc4c(n1c1ccccc41)[C@@H]32 please.
Solution: 1

Exercise: Report fluorescence ratio (interference) for NC(CO)C(=O)NNCc1ccc(O)c(O)c1O (stereo unspecified) please.
Solution: 1

Exercise: Report fluorescence ratio (interference) for CCOC(=O)c1ncn2c1CN(C)C(=O)c1cc(F)ccc1-2 please.
Solution: 1

Exercise: Report fluorescence ratio (interference) for CCCCNc1ccc(C(=O)OCCN(C)C)cc1 please.
Solution: 0.9

Exercise: Report fluorescence ratio (interference) for Clc1ccccc1C(c1ccccc1)(c1ccccc1)n1ccnc1 please.
Solution: 1

Exercise: Report fluorescence ratio (interference) for CN1CCN(CC(=O)N2c3ccccc3C(=O)Nc3cccnc32)CC1 please.
Solution: 1

Exercise: Report fluorescence ratio (interference) for CN(C)CCOC(=O)COc1ccc(Cl)cc1 please.
Solution: 1

Exercise: Report fluorescence ratio (interference) for CC1(C)NC(=O)N(c2ccc([N+](=O)[O-])c(C(F)(F)F)c2)C1=O please.
Solution: 1

Exercise: Report fluorescence ratio (interference) for CCc1c(C)[nH]c2c1C(=O)C(CN1CCOCC1)CC2 (stereo unspecified) please.
Solution: 0.9

Exercise: Report fluorescence ratio (interference) for COc1ccc(CCN(C)CCCC(C#N)(c2ccc(OC)c(OC)c2)C(C)C)cc1OC (stereo unspecified) please.
Solution: 1

Exercise: Report fluorescence ratio (interference) for COc1ccccc1N1CCN(CC(O)COc2cccc3ccccc23)CC1 (stereo unspecified) please.
Solution: 1

Exercise: Report fluorescence ratio (interference) for CN(C)CCC(c1ccccc1)c1ccccn1 (stereo unspecified) please.
Solution: 0.9

Exercise: Report fluorescence ratio (interference) for O=C(NCCN1CCOCC1)c1ccc(Cl)cc1 please.
Solution: 0.9

Exercise: Report fluorescence ratio (interference) for NC(Cc1ccc(Cl)cc1)C(=O)O (stereo unspecified) please.
Solution: 1

Exercise: Report fluorescence ratio (interference) for O=C(O)c1cccnc1Nc1cccc(C(F)(F)F)c1 please.
Solution: 0.9

Exercise: Report fluorescence ratio (interference) for CCN1CCC[C@H]1CNC(=O)c1cc(S(N)(=O)=O)ccc1OC please.
Solution: 1

Exercise: Report fluorescence ratio (interference) for C[C@]12C=CC(=O)C=C1CC[C@H]1[C@@H]3C[C@@H](O)[C@](O)(C(=O)CO)[C@@]3(C)C[C@H](O)[C@@]12F please.
Solution: 1

Exercise: Report fluorescence ratio (interference) for NC(=O)c1ncn([C@@H]2O[C@H](CO)[C@@H](O)[C@H]2O)n1 please.
Solution: 0.9

Exercise: Report fluorescence ratio (interference) for Clc1ccc(C(c2ccccc2Cl)C(Cl)Cl)cc1 (stereo unspecified) please.
Solution: 0.9

Exercise: Report fluorescence ratio (interference) for COc1ccc(C2CNC(=O)C2)cc1OC1CCCC1 (stereo unspecified) please.
Solution: 1

Exercise: Report fluorescence ratio (interference) for OCc1cc(C(O)CNCCCCCCOCCCCc2ccccc2)ccc1O (stereo unspecified) please.
Solution: 1

Exercise: Report fluorescence ratio (interference) for CCN(CC)C(C)CN1c2ccccc2Sc2ccccc21 (stereo unspecified) please.
Solution: 1

Exercise: Report fluorescence ratio (interference) for Cc1nc2sccn2c(=O)c1CCN1CCC(=C(c2ccc(F)cc2)c2ccc(F)cc2)CC1 please.
Solution: 0.9

Exercise: Report fluorescence ratio (interference) for COc1cc(C(=O)OCCCN2CCCN(CCCOC(=O)c3cc(OC)c(OC)c(OC)c3)CC2)cc(OC)c1OC please.
Solution: 1

Exercise: Report fluorescence ratio (interference) for NCCCC(=O)O please.
Solution: 1

Exercise: Report fluorescence ratio (interference) for CN1CCC(=C2c3ccccc3C=Cc3ccccc32)CC1 please.
Solution: 1
